Each item that follows carries a reported polymerase ribozyme fitness (log ratio).
B1: TPR 5TU (parent)
chain: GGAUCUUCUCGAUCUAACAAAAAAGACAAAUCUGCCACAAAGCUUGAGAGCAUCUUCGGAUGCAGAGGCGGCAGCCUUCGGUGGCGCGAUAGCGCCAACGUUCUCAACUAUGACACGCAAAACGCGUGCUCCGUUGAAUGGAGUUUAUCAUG

Variants of: B1
Test: polymerase ribozyme fitness, log enrichment relative to wild type (log ratio); higher = more active; in vitro selection for triplet polymerase activity
Fewer inactive variants are shown than the library holds.
Please respond with just the number, no unit label.

Answered examples (5):
G59C G83U; 0.0759
A22U G88U C116A A119U; -4.1
A12U A17G C57A A98U; -0.729
G68A C93U; -4.04
C14A C35U G58A G86A C96U; -3.96

Kindly consider the entry below.
Recorded polymerase ribozyme fitness (log ratio) (variant C14A U44G ): -4.1

Source: the RNAGym collection of RNA variant scans (doi:10.1073/pnas.2313332121)
